Assay: High-throughput drug toxicity screening in the BPDCN cell line Gen2.2 (AID 1224824);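 also: cells exposed to compounds for 48 h before reading; 100% = DMSO and 0% = bortezomib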
Conditions: Gen2.2 BPDCN cells; at 45.8 µM (top of the series) unless noted
For each record, write down the corresponding cell viability, % of control (lower = more cytotoxic).
One number for each entry, in %.

Known results for molecules:
>  <molecule>
N#Cc1c(NC(=O)c2cccc3ccccc23)sc2c1CCCC2

>  <recorded number>
83.4

$$$$
>  <molecule>
NC(=O)N1CCC(CC(=O)N2CCC([C@H]3c4ncc(Br)cc4CCc4cc(Cl)cc(Br)c43)CC2)CC1

>  <recorded number>
82.6

$$$$
>  <molecule>
CCCNC(=O)[C@H]1O[C@H]1C(=O)N[C@H](C(=O)N1CCC[C@@H]1C(=O)OC)C(C)CC (some centres undefined)

>  <recorded number>
18.6

$$$$
>  <molecule>
C[C@]12C=CC(=O)N[C@@H]1CC[C@H]1[C@H]3CC[C@@H](C(=O)Nc4cc(C(F)(F)F)ccc4C(F)(F)F)[C@@]3(C)CC[C@@H]12

>  <recorded number>
58.7

$$$$
>  <molecule>
Cc1cnc(NC(=O)Nc2cc(Br)c(C)cc2OC[C@@H]2CNCCO2)cn1

>  <recorded number>
20.9

$$$$
>  <molecule>
CCNC(=O)Nc1ccc(-c2nc3c(c(N4CCOC[C@H]4C)n2)CCN(C2COC2)C3)cc1

>  <recorded number>
5.52

$$$$

Quick one: give me cell viability, % of control (lower = more cytotoxic) for each item below, same order please.
1. Cc1ccc(-n2[nH]c(C)c(N=Nc3cccc(-c4cccc(C(=O)O)c4)c3O)c2=O)cc1C
2. COC(=O)[C@H](CCCN=C(N)N)NS(=O)(=O)c1ccc(C)cc1

# output
1: 180; 2: 94.4

###

Tested on: NIH3T3
Test: Cytotoxic Profiling of Annotated Libraries Using Quantitative High-Throughput Screening (AID 1296008); also: potency is read from the fitted curve at half-maximal effect; nearly all actives have a fitted effect of over 60% in size
Conditions: Five cell lines viability, CellTiter-Glo ATP luminescence, 48-72 h
Inconclusive results are not listed. The source made the active and inactive calls. The call rests on the fitted dose curve; in most records, active means well fitted inhibition curve with a large enough effect; inconclusive means small, poorly fitted or top-dose-only effect; inactive means flat fitted curve, though single readings scatter.
property name: Potency

>  <compound>
O=C(C=Cc1ccc(CN(CCO)CCc2c[nH]c3ccccc23)cc1)NO

>  <result>
1.05 µM (active)

$$$$
>  <compound>
OCCNC1CCCc2c1[nH]c1ccc(-c3ccccc3)cc21 (stereo not given)

>  <result>
16.4 µM (active)

$$$$

Quick one: give me Potency for each item below, same order please.
1. CO[C@@H]1[C@@H](O)[C@H](O)[C@@H](n2c3c(Cl)cccc3c3c4c(c5c6cccc(Cl)c6[nH]c5c32)C(=O)NC4=O)O[C@@H]1CO
2. CCCCCN=C(N)NN=Cc1c[nH]c2ccc(OC)cc12

# output
["1.66 µM (active)", "13.2 µM (active)"]

###

Test: qHTS of pediatric cancer cell lines to identify multiple opportunities for drug repurposing: Confirmatory screen for Rh18 cells (AID 1347125);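 also: cells exposed to compound for 48 h; nearly all actives have a fitted effect of over 55% in size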
Settings: Rh18 rhabdomyosarcoma cells, viability; series mostly up to 45.9 µM
Records with an inconclusive call do not appear. The source made the active and inactive calls. Calls follow the shape of the dose curve; as a rule, active = well fitted cell-killing curve with a large enough effect; inconclusive = small, poorly fitted or top-dose-only effect, or effect the other way; inactive = flat fitted curve, though single readings scatter. Starred links: 1 amine or outer side, 2 acyl side, 3 side chain; linkers in the order of their positions; H or OH if unused. Positions of bridges follow the written chain, without caps; N, C: chain ends. Non-standard residues stand in square brackets, D forms with d. Residues, ends and D or L forms follow the SMILES beside them. Chains are numbered I, II in the order given. Actinocin(9to1) = Cc1c2oc3c(C)ccc(C(=O)[*:1])c3nc-2c(C(=O)[*:2])c(N)c1=O; NMeV = CN[CH](C(=O)O)C(C)C; Sar = CNCC(=O)O
Give one outcome, nothing more. List: Y = active, N = inactive

Field: example entries. Status: answers known.
>  <compound>
COc1ccc(S(=O)(=O)Nc2cccnc2Nc2ccc(O)cc2)cc1

>  <answer label>
N

$$$$
>  <compound>
Nc1nc2c(c(=O)[nH]1)N(C=O)[C@H](CNc1ccc(C(=O)N[C@@H](CCC(=O)O)C(=O)O)cc1)CN2

>  <answer label>
N

$$$$
>  <compound>
Cc1c2oc3c(C)ccc(C(=O)NC4C(=O)NC(C(C)C)C(=O)N5CCCC5C(=O)N(C)CC(=O)N(C)C(C(C)C)C(=O)OC4C)c3nc-2c(C(=O)NC2C(=O)NC(C(C)C)C(=O)N3CCCC3C(=O)N(C)CC(=O)N(C)C(C(C)C)C(=O)OC2C)c(N)c1=O (stereo not given) (I: TVP[Sar][NMeV] / II: TVP[Sar][NMeV]; ester I:1-I:C, II:1-II:C; linker I:N-II:N via Actinocin(9to1); configuration not given here)

>  <answer label>
Y

$$$$
>  <compound>
COc1cccc2c1C(=O)c1c(O)c3c(c(O)c1C2=O)C[C@@](O)(C(C)=O)C[C@H]3O[C@H]1C[C@H](N)[C@H](O)[C@H](C)O1

>  <answer label>
Y

$$$$

Here is another compound to look at.
# input Each compound tested received a call. Report the one for Oc1ccc(-c2ccc(-c3cc(Nc4cccc(CNC5CC5)c4)n[nH]3)cc2)c(O)c1 .
# output Y
